Item-by-item account of half-life
Test: Pharmacokinetic evaluation in dogs after a 10 mg/kg dose
Details: dog, plasma, iv, t1/2 (biological half life), IV 10 mg/kg, microbiological assay

{"columns": ["Smiles Representation", "half-life [h]"],
 "data": [
  ["CC[C@H]1OC(=O)[C@H](C)[C@@H](O[C@H]2C[C@@](C)(OC)[C@@H](O)[C@H](C)O2)[C@H](C)[C@@H](O[C@@H]2O[C@H](C)C[C@H](N(C)C)[C@H]2O)[C@](C)(O)C[C@@H](C)[C@@H]2O[C@@]1(C)[C@@H](O)[C@H]2C", 2.9],
  ["CC[C@H]1OC(=O)[C@H](C)[C@@H](O[C@H]2C[C@@](C)(OC)[C@H](N)[C@H](C)O2)[C@H](C)[C@@H](O[C@@H]2O[C@H](C)C[C@H](N(C)C)[C@H]2O)[C@](C)(O)C[C@@H](C)[C@@H]2O[C@@]1(C)[C@@H](O)[C@H]2C", 18.3]
]}

* * *

Assay: Pharmacokinetic evaluation in dogs after a 10 mg/kg dose
Conditions: dog, plasma, iv, t1/2 (biological half life), IV 10 mg/kg, microbiological assay

{"columns": ["Smiles Representation", "Unit Tag", "half-life"],
 "data": [
  ["CC[C@H]1OC(=O)[C@H](C)[C@@H](O[C@H]2C[C@@](C)(OC)[C@@H](O)[C@H](C)O2)[C@H](C)[C@@H](O[C@@H]2O[C@H](C)C[C@H](N(C)C)[C@H]2O)[C@](C)(O)C[C@@H](C)[C@@H]2O[C@@]1(C)C(=O)[C@H]2C", "h", 14.7],
  ["CC[C@H]1OC(=O)[C@H](C)[C@@H](O[C@H]2C[C@@](C)(OC)[C@@H](N)[C@H](C)O2)[C@H](C)[C@@H](O[C@@H]2O[C@H](C)C[C@H](N(C)C)[C@H]2O)[C@](C)(O)C[C@@H](C)[C@@H]2O[C@@]1(C)[C@@H](N)[C@H]2C", "h", 10.2],
  ["CC[C@H]1OC(=O)[C@H](C)[C@@H](O[C@H]2C[C@@](C)(OC)[C@@H](O)[C@H](C)O2)[C@H](C)[C@@H](O[C@@H]2O[C@H](C)C[C@H](N(C)C)[C@H]2O)[C@](C)(O)C[C@@H](C)[C@@H]2O[C@@]1(C)[C@@H](N)[C@H]2C", "h", 6.6]
]}

* * *

System: Staphylococcus aureus (NCTC 10649)
Experiment: In-vivo acute mouse protection assay
Parameters: species or system Staphylococcus aureus; female Swiss albino mice
Details: Staphylococcus aureus, NCTC10649, 168 h; oral; dosed 1 and 5 h post-infection, observed 7 days; read-out: ED50
Description: An acute mouse protection test was conducted on ten mice with each of three concentrations of selected compounds of the invention. Each concentration was a four-fold dilution of the previous concentration. The initial concentration will vary with the microorganism with which the mouse is challenged. The acute mouse protection test was conducted on female, Swiss albino mice, 18-20 grams in weight. […] The ED50 were calculated using the mortality data collected.
Item-by-item account of ED50

{"columns": ["Smiles Representation", "Unit Tag", "ED50"],
 "data": [
  ["CC[C@H]1OC(=O)[C@H](C)[C@@H](O[C@H]2C[C@@](C)(OC)[C@@H](O)[C@H](C)O2)[C@H](C)[C@@H](O[C@@H]2O[C@H](C)C[C@H](N(C)C)[C@H]2O)[C@](C)(O)C[C@@H](C)[C@@H]2O[C@@]1(C)C(=O)[C@H]2C", "mg/kg", 25.2],
  ["CC[C@H]1OC(=O)[C@H](C)[C@@H](O[C@H]2C[C@@](C)(OC)[C@H](N)[C@H](C)O2)[C@H](C)[C@@H](O[C@@H]2O[C@H](C)C[C@H](N(C)C)[C@H]2O)[C@](C)(O)C[C@@H](C)[C@@H]2O[C@@]1(C)[C@@H](O)[C@H]2C", "mg/kg", 126],
  ["CC[C@H]1OC(=O)[C@H](C)[C@@H](O[C@H]2C[C@@](C)(OC)[C@@H](O)[C@H](C)O2)[C@H](C)[C@@H](O[C@@H]2O[C@H](C)C[C@H](N(C)C)[C@H]2O)[C@](C)(O)C[C@@H](C)[C@@H]2O[C@@]1(C)[C@@H](O)[C@H]2C", "mg/kg", 55],
  ["CC[C@H]1OC(=O)[C@H](C)[C@@H](O[C@H]2C[C@@](C)(OC)[C@@H](O)[C@H](C)O2)[C@H](C)[C@@H](O[C@@H]2O[C@H](C)C[C@H](N(C)C)[C@H]2O)[C@](C)(O)C[C@@H](C)[C@@H]2O[C@@]1(C)[C@@H](N)[C@H]2C", "mg/kg", 75.4]
]}
